Listed below: GI50 values for each entry.
System: A549
Test: NCI tumour cell line growth inhibition, 48 h
Active and inactive are the calls of the source. No stated cut-off is given here; in the data, active = GI50 up to about 1.1 µM and inactive = higher.

Cc1cc(NC(=S)SCc2ccc(F)cc2)c([N+](=O)[O-])cc1C; 27.7 µM (inactive)
COc1ccc(C2C(C#N)=C(S)N(C3OC(CO)C(O)C(O)C3O)C(c3ccccc3)=C2C(C)=O)cc1 (configuration not stated); > 100 µM (inactive)
CCCCCCCCCCCCCP(=O)(OC)OC; 21.2 µM (inactive)

Proceeding to the next molecule to report its GI50.
Record "Oc1ccc(-c2cc(-c3c(O)cc(O)cc3O)on2)cc1" / A549, GI50 recorded as 54.2 µM (inactive)

----------
Tested on: HOP-18
Assay: NCI tumour cell line growth inhibition, 48 h
Calls of active or inactive are those of the source. Rule as the data show it: active = GI50 up to about 1.1 µM and inactive = higher.
TEST_READOUT: GI50

CCCN/C(N)=N/C#N; > 100 µM (inactive)
COc1cc(NC(C)CCCN)c2ncccc2c1 (stereo not drawn) [PRIMAQUINE PHOSPHATE]; > 36.1 µM (inactive)
Cc1ccc2[nH]c(Sc3c([N+](=O)[O-])ncn3C)nc2c1; 17.5 µM (inactive)
CN1N=C2c3ccccc3CC[C@H]2C1c1ccccc1 (stereo partly drawn); > 100 µM (inactive)
CC1=C(c2cc(C(=O)Nc3nccs3)nc(NC#N)n2)Sc2ccccc2N1; > 100 µM (inactive)
CN(C)CCNC(=O)c1cccc2[nH]c(-c3ccccc3)nc12; 11.9 µM (inactive)
NC(CCCC(N)P(=O)(O)O)P(=O)(O)O (stereo not drawn); > 100 µM (inactive)
COC(=O)NN1C(C)=C(C(=O)OC)C2(CCOC2=O)C1(C)O (stereo not drawn); > 100 µM (inactive)

GI50 reported for this compound "Cc1ccc(-c2c(N)[n+]([O-])c3ccccc3[n+]2[O-])cc1" : 15.7 µM (inactive)

GI50 reported for this compound COc1ccccc1Cc1nc(-c2ccccc2)nn(C2OC(COC(C)=O)C(OC(C)=O)C(OC(C)=O)C2OC(C)=O)c1=S (stereo not drawn) : 27.9 µM (inactive)

GI50 reported for this compound "C/C(=N\NC(=O)c1ccccc1O)c1c(O)cc(C)oc1=O" : 27.2 µM (inactive)

GI50 reported for this compound "CN/N=C(\C)c1c(O)cc(C)oc1=O" : > 100 µM (inactive)

GI50 reported for this compound "Cc1nc2c(sc(=S)n2-c2ccccc2)c(=O)[nH]1" : > 100 µM (inactive)

----------
System: HOP-62
Experiment: NCI tumour cell line growth inhibition, 48 h
Calls of active or inactive are those of the source. Cut-off read from the data, not from the text of the source: active = GI50 up to about 1.1 µM and inactive = higher.
Pick one: active, inactive

Examples with answers:
O=C1Nc2ccccc2C1(O)Cc1ccccn1 (stereo not given); inactive
COC1C(O)=C2C(=O)O/C(C)=C/C=C/C=C/C=C\CC(c3ccccc3)NC(=O)\C=C/C=C\C=C\C=C\[C@@]2(C)[C@@H]1O (stereo not given in full); active
CC(C)c1nc(Cl)c(Cl)c(Cl)n1; inactive
O=C(/C=C/c1ccc(OCc2cccc(Cl)c2)cc1)NO; inactive

Name the outcome recorded for CC12CCC(=O)N1[C@@H](c1ccccc1)[C@@H](c1ccccc1)O2 (stereo not given in full) in the assay.
inactive

Name the outcome recorded for "N#CSc1[nH]cnc1C(N)=O" in the assay.
inactive

----------
Test system: M19-MEL
Experiment: NCI tumour cell line growth inhibition, 48 h
Activity calls are given as the source filed them. Cut-off read from the data, not from the text of the source: active = GI50 up to about 1.1 µM and inactive = higher.
TEST_READOUT: GI50

Examples with answers:
C=C1C(=O)c2cc3c(cc2C(c2cc(OC)c(OC)c(OC)c2)[C@@H]1C(=O)O)OCO3 (stereo partly specified); 49.1 µM (inactive)
NC(CCCC(N)P(=O)(O)O)P(=O)(O)O (stereo unspecified); > 100 µM (inactive)
Cc1cccc(C)c1N1C(=O)C(=O)C(c2nc3ccccc3s2)/C(=N/NC(=O)NN)C1=O (stereo unspecified); > 100 µM (inactive)
O=C(Cc1ccccc1)NN1C(=O)C(Cl)C1c1ccc([N+](=O)[O-])cc1 (stereo unspecified); > 100 µM (inactive)
O=NN1CCN=C1c1ccc([N+](=O)[O-])cc1; > 100 µM (inactive)

Proceeding to the next compound to report its GI50.
GI50 reported for this compound "NC(=O)NNC/C(Cl)=C(\Cl)C(=O)O" : > 100 µM (inactive)

----------
System: SK-OV-3
Assay: NCI tumour cell line growth inhibition, 48 h
Active and inactive are the calls of the source. Cut-off read from the data, not from the text of the source: active = GI50 up to about 1.1 µM and inactive = higher.
Pick one: true (active), false (inactive)

COC1C(O)=C2C(=O)O/C(C)=C/C=C/C=C/C=C\CC(c3ccccc3)NC(=O)\C=C/C=C\C=C\C=C\[C@@]2(C)[C@@H]1O (some centres undefined); true

Name the outcome recorded for "Cc1ccc(/C=C2\CCS(=O)(=O)c3ccccc3C2=O)cc1" in the assay.
false

Name the outcome recorded for "Nc1cc2c3c(cccc3c1)C(=O)N(c1ccc(OCCN3CCCC3)cc1)C2=O" in the assay.
false

Name the outcome recorded for C=CCN(c1cc(OC)c2c(c1[N+](=O)[O-])C(C)(SC)C(=O)N2)S(C)(=O)=O (centres undefined) in the assay.
false

----------
System: KM12
Test: NCI tumour cell line growth inhibition, 48 h
The source made the active and inactive calls. No stated cut-off is given here; in the data, active = GI50 up to about 1.1 µM and inactive = higher.
Pick one: active, inactive

CC(C)COC(c1ccc2c(c1)OCO2)C(C)Br (stereo not drawn); inactive
CC(C)c1nc(Cl)c(Cl)c(Cl)n1; inactive

In the following, a different compound is considered.
Name the outcome recorded for "CN1CC[C@]2(c3cccc(O)c3)CC(=O)/C(=C/c3ccc(Cl)c(Cl)c3)[C@@H]1C2" in the assay.
active

----------
Test system: XF498
Test: NCI tumour cell line growth inhibition, 48 h
Calls of active or inactive are those of the source. No stated cut-off is given here; in the data, active = GI50 up to about 1.1 µM and inactive = higher.
Listed below: GI50 values for each entry.

Examples with answers:
CC(=O)c1ccc(NC(=O)COC(=O)c2cccc3c(=O)c4ccccc4[nH]c23)cc1; 23.1 µM (inactive)
Fc1ccccc1C1CC(C(c2ccccc2)c2ccccc2)=Nc2ccccc2S1 (stereo not given); 13.7 µM (inactive)
COc1ccc2c(c1)[n+]([O-])c(-c1ccccc1)c(N)[n+]2[O-]; 35 µM (inactive)
CCCCCCCCCCCCCP(=O)(OC)OC; 17.9 µM (inactive)

GI50 reported for this compound "NCCSSCc1ccccc1CSSCCN" : > 100 µM (inactive)

----------
Tested on: MOLT-4
Assay: NCI tumour cell line growth inhibition, 48 h
The source made the active and inactive calls. Cut-off read from the data, not from the text of the source: active = GI50 up to about 1.1 µM and inactive = higher.
Listed below: GI50 values for each entry.

Examples with answers:
Nc1cc2c3c(cccc3c1)C(=O)N(c1ccc(OCCN3CCCC3)cc1)C2=O; 18.5 µM (inactive)
CCOC(=O)[C@H]1Nc2ccccc2C2c3ccccc3CC21 (stereo not given in full); 24.4 µM (inactive)
CN1N=C2c3ccccc3CC[C@H]2C1c1ccccc1 (stereo not given in full); > 100 µM (inactive)

Record Cc1ccc(S(=O)(=O)NC(=O)NC(C(=O)O)C(C)O)cc1 (stereo not given) / MOLT-4, GI50 recorded as > 100 µM (inactive)

Record CCOC(OCC)N1C(=O)C2(C(OCC)OCC)CC3C(OC(=O)N3N)c3cccc1c32 (stereo not given) / MOLT-4, GI50 recorded as 79.4 µM (inactive)

Record NC1=NCC(CN2CCOCC2)O1 (stereo not given) / MOLT-4, GI50 recorded as > 100 µM (inactive)

Record "O=c1c2cc(Br)cc(Br)c2[nH]c(=S)n1-c1ccc(/N=N/c2ccc(O)c3cccnc23)cc1" / MOLT-4, GI50 recorded as 24.8 µM (inactive)

Record "CCOC(=O)Cn1c(=O)n(C)c(=O)c2[nH]cnc21" / MOLT-4, GI50 recorded as > 100 µM (inactive)

Record "Cc1ccc(/C=C2\CCS(=O)(=O)c3ccccc3C2=O)cc1" / MOLT-4, GI50 recorded as 9.1 µM (inactive)

----------
System: SF-295
Assay: NCI tumour cell line growth inhibition, 48 h
Activity calls are given as the source filed them. Cut-off read from the data, not from the text of the source: active = GI50 up to about 1.1 µM and inactive = higher.
Pick one: active, inactive

Name the outcome recorded for CC(=O)OCC(OC(C)=O)C1C[C@H]2O[C@@H]3[C@H](C[C@H]2O1)O[C@@]1(C[C@@H]3C)C[C@H](C)[C@@H]2O[C@]3(C[C@@H]2O1)C[C@H]1O[C@H]2[C@H](C)[C@H]4OC(=O)CC5CC[C@H]6OC7[C@H]8O[C@]9(CC[C@H]%10CC(O)(CO)[C@H](CC[C@H]%11C[C@@H](C)C(O)(CO)C(C[C@@H]4O[C@H]2C[C@H]1O3)O%11)O%10)CC8O[C@@H]7[C@@H](O9)[C@H]6O5 (stereo not given in full) in the assay.
active

Name the outcome recorded for C=C1C(=O)c2cc3c(cc2C(c2cc(OC)c(OC)c(OC)c2)[C@@H]1C(=O)O)OCO3 (stereo not given in full) in the assay.
inactive

Name the outcome recorded for COc1ccc(N[C@H]([C@@H](c2ccccc2)[S+]([O-])c2ccc(C)cc2)C(F)(F)F)cc1 (stereo not given in full) in the assay.
inactive

Name the outcome recorded for "Cc1ccc([C@@H]2[C@@H](C(=O)c3ccccn3)[C@H](c3ccc(C)cc3)C[C@](O)(c3ccccn3)[C@H]2C(=O)c2ccccn2)cc1" in the assay.
inactive

Name the outcome recorded for "c1ccc(CSc2ccccc2CN2CCN(Cc3ccccc3SCc3ccccc3)CCN(Cc3ccccc3SCc3ccccc3)CC2)cc1" in the assay.
active

Name the outcome recorded for "CN(C(=N)c1ccccc1)c1ccccc1" in the assay.
inactive
